Catalogue of half-life readings, one per entry.
Assay: Microsomal stability and clearance
Assay type: in vitro ADME, human, mouse
Settings: microsomal stability; Table 4
readout: half-life (h)

# compound, readout, reported_value
measured = [
    ("CCN(CC)CCSc1ccc(/C=C/C(=O)NO)cc1[N+](=O)[O-]", "half-life", 2.2),
    ("O=C(CCCCCCC(=O)Nc1ccccc1)NO [SAHA, suberoylanilide hydroxamic acid, reference compound]", "half-life", 1.6),
    ("CCN(CC)CCSc1ccc(/C=C/C(=O)NO)cc1NC(C)=O", "half-life", 1.6),
    ("CCCCc1nc2cc(/C=C/C(=O)NO)ccc2n1CCN(CC)CC [SB939, reference compound]", "half-life", 1.9),
    ("CCCNc1cc(/C=C/C(=O)NO)ccc1SCCN(CC)CC", "half-life", 1.8),
    ("CCCCCNc1cc(/C=C/C(=O)NO)ccc1SCCN(CC)CC", "half-life", 1.8),
    ("CCN(CC)CCSc1ccc(/C=C/C(=O)NO)cc1NCc1ccccc1", "half-life", 2.5),
    ("CCN(CC)CCSc1ccc(/C=C/C(=O)NO)cc1NCCCc1ccccc1", "half-life", 1.4),
]
